Taken from patent US6737383B1.

For each of the compounds below, state its Cocklebur plant response rating.
- Test system: cocklebur
- assay text: Test B pre/postemergence cocklebur
- Type: in vivo, Xanthium strumarium
- reported conditions: Rate 500 g/ha, Postemergence; scale 0 to 10, 0 no effect, 10 complete control
Lab note: record the figure alone, no unit after it.

Lab entry: cocklebur assay, compound C=CCn1c(=O)on(C(=O)N(c2ccc(Cl)cc2)C(C)C)c1=O [Compound 105] , Cocklebur plant response rating = 4

Lab entry: cocklebur assay, compound Cc1cc(C)c(-n2c(=O)on(C(=O)N(c3ccc(F)cc3)C(C)C)c2=O)c(C)c1 [Compound 60] , Cocklebur plant response rating = 0

Lab entry: cocklebur assay, compound CC(C)N(C(=O)n1oc(=O)n(C(C)C)c1=O)c1ccc(Cl)cc1 [Compound 114] , Cocklebur plant response rating = 0

Lab entry: cocklebur assay, compound Cc1nc(C)c(Cn2c(=O)on(C(=O)N(c3ccc(F)cc3)C(C)C)c2=O)s1 [Compound 232] , Cocklebur plant response rating = 4

Lab entry: cocklebur assay, compound Cc1ccccc1Cn1c(=O)on(C(=O)N(c2ccc(F)cc2F)C(C)C)c1=O [Compound 87] , Cocklebur plant response rating = 2

----------
- System: crabgrass
- assay text: Test B pre/postemergence crabgrass
- Format: in vivo, Digitaria sanguinalis
- reported conditions: Preemergence, Rate 62 g/ha; scale 0 to 10 (0 no effect, 10 complete control)
reported metric: Crabgrass plant response rating
Lab note: record the figure alone, no unit after it.

Crabgrass plant response rating reported for this compound "CC(C)c1noc(C(C)C)c1-n1c(=O)on(C(=O)N(c2ccc(F)cc2)C(C)C)c1=O" : 0

Crabgrass plant response rating reported for this compound "CC(C)N(C(=O)n1oc(=O)n(CNC(=O)c2ccccc2)c1=O)c1ccccc1" : 0

Crabgrass plant response rating reported for this compound "Cc1cc(C)c(-n2c(=O)on(C(=O)N(c3ccc(F)cc3)C(C)C)c2=O)c(C)c1" : 0

Crabgrass plant response rating reported for this compound "CCN(CC)C(=O)n1oc(=O)n(Cc2cccs2)c1=O" : 0

Crabgrass plant response rating reported for this compound "C=CCCCn1c(=O)on(C(=O)N(c2ccc(Cl)cc2)C(C)C)c1=O" : 7

----------
- Test system: crabgrass
- assay text: Test B pre/postemergence crabgrass
- Type: in vivo, Digitaria sanguinalis
- reported conditions: Preemergence, Rate 250 g/ha; scale of 0 to 10 where 0 is no effect and 10 is complete control
reported metric: Crabgrass plant response rating

Crabgrass plant response rating reported for this compound "Cc1c(-n2c(=O)on(C(=O)N(c3ccc(Cl)cc3)C(C)C)c2=O)ccc2ccccc12" : 0

Crabgrass plant response rating reported for this compound "COC(Cn1c(=O)on(C(=O)N(c2ccc(F)cc2)C(C)C)c1=O)OC" : 8

Crabgrass plant response rating reported for this compound "CC(C)N(C(=O)n1oc(=O)n(-c2ccc3ccccc3c2)c1=O)c1ccc(F)cc1" : 0

Crabgrass plant response rating reported for this compound "Cc1nnsc1Cn1c(=O)on(C(=O)N(c2ccc(F)cc2)C(C)C)c1=O" : 7

----------
- Tested on: surinam grass
- assay text: Test B pre/postemergence surinam grass
- Type: in vivo, Brachiaria decumbens
- reported conditions: Preemergence, Rate 62 g/ha; scale 0 to 10 (0 no effect, 10 complete control)
For each of the molecules below, state its B. signalgrass plant response rating.

Lab entry: surinam grass assay, molecule "CCC=CCn1c(=O)on(C(=O)N(c2ccccc2)C(C)C)c1=O" , B. signalgrass plant response rating = 0

Lab entry: surinam grass assay, molecule "CCCn1c(=O)on(C(=O)N(c2ccc(F)cc2F)C(C)C)c1=O" , B. signalgrass plant response rating = 6

Lab entry: surinam grass assay, molecule "CCn1c(=O)on(C(=O)N(c2ccccc2)C(C)C)c1=O" , B. signalgrass plant response rating = 6

Lab entry: surinam grass assay, molecule "CC(C)N(C(=O)n1oc(=O)n(C[Si](C)(C)C)c1=O)c1ccccc1" , B. signalgrass plant response rating = 0

Lab entry: surinam grass assay, molecule "CC(C)N(C(=O)n1oc(=O)n(-c2ccnn2C)c1=O)c1ccc(F)cc1" , B. signalgrass plant response rating = 0

----------
- Tested on: smallflower flatsedge
- assay text: Test B flood test smallflower flatsedge
- Format: in vivo, Cyperus difformis
- reported conditions: Rate 500 g/ha, Pre-emergence section of Table B; 0 to 10 scale (0 no effect, 10 complete control)
For each of the molecules below, state its S. Flatsedge plant response rating.
Lab note: record the figure alone, no unit after it.

S. Flatsedge plant response rating reported for this molecule "CC[C@H](C)n1c(=O)on(C(=O)N(c2ccc(Cl)cc2)C(C)C)c1=O" : 0

S. Flatsedge plant response rating reported for this molecule "C=C(Cl)Cn1c(=O)on(C(=O)N(c2ccc(F)cc2F)C(C)C)c1=O" : 0

S. Flatsedge plant response rating reported for this molecule "COCCn1c(=O)on(C(=O)N(c2ccc(F)cc2)C(C)C)c1=O" : 3

S. Flatsedge plant response rating reported for this molecule "CC(C)N(C(=O)n1oc(=O)n(C(C)C)c1=O)c1ccncc1" : 0

S. Flatsedge plant response rating reported for this molecule COC(=O)C(CCO)n1c(=O)on(C(=O)N(c2ccc(F)cc2)C(C)C)c1=O (stereo not drawn) : 0

S. Flatsedge plant response rating reported for this molecule CC(C)N(C(=O)n1oc(=O)n(CC2CCCCO2)c1=O)c1ccc(F)cc1F (stereo not drawn) : 0

----------
- Test system: wild oat
- assay text: Test B pre/postemergence wild oat
- Format: in vivo, Avena fatua
- reported conditions: Postemergence, Rate 500 g/ha; scale of 0 to 10 where 0 is no effect and 10 is complete control
For each of the compounds below, state its Plant response rating, Wild oats.

Plant response rating, Wild oats reported for this compound CC(C)N(C(=O)n1oc(=O)n(CCCF)c1=O)c1ccccc1 [Compound 559] : 5

Plant response rating, Wild oats reported for this compound CC(C)N(C(=O)n1oc(=O)n(CCCC(F)(F)F)c1=O)c1ccccc1 [Compound 585] : 2

Plant response rating, Wild oats reported for this compound CC(C)N(C(=O)n1oc(=O)n(CC(=O)N(C)C)c1=O)c1ccccc1 [Compound 588] : 0

Plant response rating, Wild oats reported for this compound CCOP(=O)(Cn1c(=O)on(C(=O)N(c2ccc(Cl)cc2)C(C)C)c1=O)OCC [Compound 599] : 0

Plant response rating, Wild oats reported for this compound CC(C)N(C(=O)n1oc(=O)n(CCC2OCCCO2)c1=O)c1ccccc1 [Compound 561] : 2

----------
- Tested on: giant foxtail
- assay text: Test B pre/postemergence giant foxtail
- Type: in vivo, Setaria faberii
- reported conditions: Postemergence, Rate 125 g/ha; scale 0 to 10, 0 is no effect, 10 is complete control
reported metric: Plant response rating, Giant foxtail

Lab entry: giant foxtail assay, compound CC1CC1n1c(=O)on(C(=O)N(c2ccc(Cl)cc2)C(C)C)c1=O (centres unmarked) , Plant response rating, Giant foxtail = 0

Lab entry: giant foxtail assay, compound "CC(C)N(C(=O)n1oc(=O)n(CCC#N)c1=O)c1ccc(F)cc1" , Plant response rating, Giant foxtail = 8

Lab entry: giant foxtail assay, compound "CCC(CC)n1c(=O)on(C(=O)N(c2ccccc2)C(C)C)c1=O" , Plant response rating, Giant foxtail = 4

Lab entry: giant foxtail assay, compound "Cc1nnsc1Cn1c(=O)on(C(=O)N(c2ccc(F)cc2)C(C)C)c1=O" , Plant response rating, Giant foxtail = 2

Lab entry: giant foxtail assay, compound "Cc1c(-n2c(=O)on(C(=O)N(c3ccc(Cl)cc3)C(C)C)c2=O)ccc2ccccc12" , Plant response rating, Giant foxtail = 0

----------
- Test system: sugar beet
- assay text: Test B pre/postemergence sugar beet
- Assay type: in vivo, Beta vulgaris
- reported conditions: Preemergence, Rate 500 g/ha; scale of 0 to 10 where 0 is no effect and 10 is complete control
For each of the compounds below, state its Plant response rating, Sugarbeets.
Lab note: record the figure alone, no unit after it.

Plant response rating, Sugarbeets reported for this compound "C=C(Cn1c(=O)on(C(=O)N(c2ccccc2)C(C)C)c1=O)c1cccc(Cl)n1" : 0

Plant response rating, Sugarbeets reported for this compound "CC(C)N(C(=O)n1oc(=O)n(CNC(=O)c2ccccc2)c1=O)c1ccccc1" : 0

Plant response rating, Sugarbeets reported for this compound "Cc1nc(C)c(Cn2c(=O)on(C(=O)N(c3ccc(F)cc3)C(C)C)c2=O)s1" : 4

----------
- Tested on: crabgrass
- assay text: Test B pre/postemergence crabgrass
- Type: in vivo, Digitaria sanguinalis
- reported conditions: Preemergence, Rate 62 g/ha; scale 0 to 10 (0 no effect, 10 complete control)
reported metric: Plant response rating, Crabgrass
Lab note: record the figure alone, no unit after it.

Plant response rating, Crabgrass reported for this compound CC(C)C(C)n1c(=O)on(C(=O)N(c2ccccc2)C(C)C)c1=O (stereo not drawn) [Compound 355] : 4

Plant response rating, Crabgrass reported for this compound CCC(CC)n1c(=O)on(C(=O)N(c2ccccc2)C(C)C)c1=O [Compound 354] : 9

Plant response rating, Crabgrass reported for this compound Cc1nsc(Cl)c1Cn1c(=O)on(C(=O)N(c2ccccc2)C(C)C)c1=O [Compound 374] : 6
